Hello, the source for this data is patent US11098333B2, in case you need it.

- Test system: ATP phosphoribosyltransferase (HisG)
- measurement_description: Degree of inhibition by L-histidine on activities of ATP phosphoribosyltransferase variants
- Assay type: biochemical, Corynebacterium glutamicum
- cond: L-histidine 0 mM
Activity of Enzyme, 0 mM L-histidine for assorted molecules
measured_property: Activity of Enzyme, 0 mM L-histidine (U/mg)

INSERT INTO results (molecule, measured_property, unit_string, reading) VALUES
  ('HisG (N215K/L231F/T235A): known HisG variant N215K/L231F/T235A (Biochimie. 2012 March; 94(3):829-38) (protein) MLKIAVPNKGSLSERAMEILAEAGYAGRGDSKSLNVFDEANNVEFFFLRPKDIAIYVAGGQLDLGITGRDLARDSQADVHEVLSLGFGSSTFRYAAPADEEWSIEKLDGKRIATSYPNLVRDDLAARGLSAEVLRLDGAVEVSIKLGVADAIADVVSTGRTLRQQGLAPFGEVLCTSEAVIVGRKDEKVTPEQQILLRRIQGILHAQNFLMLDYKVDRDNLDAATAVTPGFSGPAVSPLARDNWVAVRAMVPRRSANAIMDKLAGLGAEAILASEIRIARI', 'Activity of Enzyme, 0 mM L-histidine', 'U/mg', 0.387),
  ('HisG (N215R/L231F/T235A): ATP phosphoribosyltransferase variant N215R/L231F/T235A (protein) MLKIAVPNKGSLSERAMEILAEAGYAGRGDSKSLNVFDEANNVEFFFLRPKDIAIYVAGGQLDLGITGRDLARDSQADVHEVLSLGFGSSTFRYAAPADEEWSIEKLDGKRIATSYPNLVRDDLAARGLSAEVLRLDGAVEVSIKLGVADAIADVVSTGRTLRQQGLAPFGEVLCTSEAVIVGRKDEKVTPEQQILLRRIQGILHAQNFLMLDYRVDRDNLDAATAVTPGFSGPAVSPLARDNWVAVRAMVPRRSANAIMDKLAGLGAEAILASEIRIARI', 'Activity of Enzyme, 0 mM L-histidine', 'U/mg', 0.408),
  ('HisG (N215R): ATP phosphoribosyltransferase variant with N215R substitution (protein) MLKIAVPNKGSLSERAMEILAEAGYAGRGDSKSLNVFDEANNVEFFFLRPKDIAIYVAGGQLDLGITGRDLARDSQADVHEVLSLGFGSSTFRYAAPADEEWSIEKLDGKRIATSYPNLVRDDLAARGLSAEVLRLDGAVEVSIKLGVADAIADVVSTGRTLRQQGLAPFGEVLCTSEAVIVGRKDEKVTPEQQILLRRIQGILHAQNFLMLDYRVDRDNLDAATAVTPGLSGPTVSPLARDNWVAVRAMVPRRSANAIMDKLAGLGAEAILASEIRIARI', 'Activity of Enzyme, 0 mM L-histidine', 'U/mg', 0.021);
